biological target: human DLL4, full length, on cells (human, UniProt Q9NR61 27-685); experiment: cell-based or functional assay
Sequence (Q9NR61 27-685 limits assumed): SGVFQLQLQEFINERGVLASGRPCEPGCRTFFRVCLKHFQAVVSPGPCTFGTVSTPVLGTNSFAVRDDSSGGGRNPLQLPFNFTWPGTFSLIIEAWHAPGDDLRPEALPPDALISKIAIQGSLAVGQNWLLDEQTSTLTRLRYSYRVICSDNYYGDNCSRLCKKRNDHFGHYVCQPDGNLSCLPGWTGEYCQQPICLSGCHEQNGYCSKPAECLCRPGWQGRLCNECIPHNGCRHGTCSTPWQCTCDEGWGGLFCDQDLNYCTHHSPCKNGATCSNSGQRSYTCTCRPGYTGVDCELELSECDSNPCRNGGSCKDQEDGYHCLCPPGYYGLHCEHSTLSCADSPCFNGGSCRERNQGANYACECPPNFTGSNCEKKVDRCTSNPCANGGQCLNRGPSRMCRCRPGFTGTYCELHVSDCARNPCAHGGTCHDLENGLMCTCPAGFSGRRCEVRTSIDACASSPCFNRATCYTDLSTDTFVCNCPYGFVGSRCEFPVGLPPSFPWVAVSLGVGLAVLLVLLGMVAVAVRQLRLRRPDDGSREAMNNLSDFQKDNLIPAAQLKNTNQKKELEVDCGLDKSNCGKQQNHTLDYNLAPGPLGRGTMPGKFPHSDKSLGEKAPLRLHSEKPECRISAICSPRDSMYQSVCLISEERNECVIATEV
Measure Name: Inhibition of Notch Activation via DLL4 cells, Notch reporter assay (nM)
The answer is to be given in nM; state only the numeric part.

Binder: h1A11.A11 (antibody, V domains shown, also called h1A11.A11 VH / h1A11VL.1) VH: EVQLVESGGGLVQPGGSLRLSCAASGFTFRHFPMAWVRQAPGKGLEWVATISSSDDWPNYRDSVKGRFTISRDNAKSSLYLQMNSLRAEDTAVYYCSRGYYNSPFAYWGQGTLVTVSS VL: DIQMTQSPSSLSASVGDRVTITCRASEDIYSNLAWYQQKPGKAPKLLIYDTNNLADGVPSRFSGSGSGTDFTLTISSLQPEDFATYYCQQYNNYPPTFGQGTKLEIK
Readout Number: 0.904

Alright, here's another binder for you.
Report measured Inhibition of Notch Activation via DLL4 cells, Notch reporter assay; entry is h1A11.C6 (antibody, V domains shown, also called h1A11.C6 VH / h1A11VL.1) VH: EVQLVESGGGLVQPGGSLRLSCAASGFTFRNFPMAWVRQAPGKGLEWVATISSSDGWPTYRDSVKGRFTISRDNAKSSLYLQMNSLRAEDTAVYYCSRGYYNSPFAYWGQGTLVTVSS VL: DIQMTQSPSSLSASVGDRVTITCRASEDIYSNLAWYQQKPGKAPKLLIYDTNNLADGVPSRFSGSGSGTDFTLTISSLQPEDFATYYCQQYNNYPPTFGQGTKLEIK
0.894
